- ASSAY: Differential scanning calorimetry (DSC) of organogels in safflower oil
- Type: physicochemical
- RUN PARAMETERS: organogelator 5% (w/w) in safflower oil, maximum of endothermic peak
The reader will find reported TGS (gel-solution transition temperature) values listed item by item below.
Numeric answer only, unit °C assumed.

Past entries and their recorded results:
compound=CCCCCCCCCCCCCCCCCC(=O)N[C@@H](Cc1ccc(O)cc1)C(=O)OC result=65
compound="CCCCCCCCCCCCCCCCCC(=O)NC(C)C(=O)OC (centres unmarked)" result=60

// sample CCCCCCCCCCCCCCCCCCCCCC(=O)N[C@@H](Cc1ccccc1)C(=O)OC , its TGS (gel-solution transition temperature) was 53

// sample CCCCCCCCCCCCCCCCCCCCCC(=O)N[C@@H](Cc1ccc(O)cc1)C(=O)OC , its TGS (gel-solution transition temperature) was 74

// sample CCCCCCCCCCCCCCCCCC(=O)N[C@@H](Cc1c[nH]c2ccccc12)C(=O)O , its TGS (gel-solution transition temperature) was 122

// sample CCCCCCCCCCCCCCCCCC(=O)N[C@@H](Cc1ccc(O)cc1)C(=O)O , its TGS (gel-solution transition temperature) was 127

// sample CCCCCCCCCCCCCCCCCC(=O)N[C@@H](Cc1ccccc1)C(=O)OC , its TGS (gel-solution transition temperature) was 43

// sample CCCCCCCCCCCCCCCCCC(=O)N[C@@H](Cc1c[nH]c2ccccc12)C(=O)OC , its TGS (gel-solution transition temperature) was 56
